Biological target: SCRIB_2, Q14160
Sequence (Q14160 857-960): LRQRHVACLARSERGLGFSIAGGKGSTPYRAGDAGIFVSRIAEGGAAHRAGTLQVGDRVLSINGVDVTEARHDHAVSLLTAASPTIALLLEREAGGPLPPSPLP
Experiment: holdup assay
Design: key: below the threshold = too weak to quantify, mostly under pKd 3.1 to 4
Conditions: plain residues with an end cap or a label only (N-terminal biotin on a linker: ado-ado)
MEASURED_ENDPOINT: pKd

>>> print(df.to_string())
                         binder               result
0    GTGYDRKDYV [CLDN3, O15551]  below the threshold
1    MHIQEKGFHV [EPHA6, Q9UF33]  below the threshold
2  DDASLPVSDV [PLEKHA1, Q9HB21]  below the threshold
3     QSGLYESEEL [MYOT, Q9UBF9]  below the threshold
